assay: Cytotoxicity against mouse NCTC clone 929 cells assessed as viable cells at 50 ug/ml incubated for 24 hrs by CCK-8 assay relative to control; type: toxicity, cell-based; details: NCTC clone 929 (L929) cells, at 50 µg/mL, read-out: Activity
ATTRIBUTE MEASURED: viability at 24 h, 50 ug/ml (%)
Numeric only. Scale: %

Asked: Item "COC(=O)[C@H](CCCNC(=N)N)NC(=O)[C@H](CCCNC(=N)N)NC(=O)COc1ccc(S(=O)(=O)c2ccc(OC/C=C(/C)CCC=C(C)C)cc2)cc1" has what recorded viability at 24 h, 50 ug/ml?
Given back: 84.7

* * *

system: Escherichia coli; experiment: Antibacterial activity against Escherichia coli ATCC25922 assessed as reduction in microbial growth incubated for 22 to 24 hrs by CLSI based broth microdilution method; format: functional; details: time 22-24 hrs
Below, each entry is listed with its recorded MIC.

Previously resolved entries follow.
>>> print(df.to_string())
                            compound_string  attribute_measured         val
0  CC(C)=CCC/C(C)=C\COc1ccc(S(=O)(=O)c2ccc(OCCCCNC(=N)N)cc2)cc1                 MIC  > 50 µg/mL
1  C=CCOc1ccc(S(=O)(=O)c2ccc(OCC(=O)N[C@@H](CCCNC(=N)N)C(=O)OC)cc2)cc1                 MIC  > 50 µg/mL
2  CCOC(=O)COc1ccc(S(=O)(=O)c2ccc(OC/C=C(/C)CCC=C(C)C)cc2)cc1                 MIC  > 50 µg/mL
3  COC(=O)[C@H](CCCNC(=N)N)NC(=O)COc1ccc(S(=O)(=O)c2ccc(OCC=C(C)C)cc2)cc1                 MIC  > 50 µg/mL

Shift focus to the following entry.
Asked: # MIC lookup, item "O=S(=O)(c1ccc(O)cc1)c1ccc(O)cc1"
Given back: > 100 µg/mL

* * *

test system: Escherichia coli; assay: Antibacterial activity against Escherichia coli ATCC25922 assessed as reduction in microbial growth incubated for 22 to 24 hrs by CLSI based broth microdilution method; type: functional; conditions: time 22-24 hrs
Here, each record is paired with measured MIC data.
The answer is to be given in µg/mL; state only the numeric part.

Asked: State the recorded MIC for this entry: "COC(=O)[C@H](CCCNC(=N)N)NC(=O)[C@H](CCCNC(=N)N)NC(=O)COc1ccc(S(=O)(=O)c2ccc(OC/C=C(/C)CCC=C(C)C)cc2)cc1"
Given back: 6.25

Asked: One more molecule: "C=CCOc1ccc(S(=O)(=O)c2ccc(OCCCCNC(=N)N)cc2)cc1"
Given back: 50

* * *

system: Staphylococcus aureus; test: Antibacterial activity against Staphylococcus aureus ATCC29213 assessed as reduction in microbial growth incubated for 22 to 24 hrs by CLSI based broth microdilution method; type: functional; settings: time 22-24 hrs
Checkbox rule: MIC lower than 10 µg/mL = 1; MIC not lower than 10 µg/mL = 0.

COMPOUND STRING	CLASSIFICATION
COC(=O)[C@H](CCCNC(=N)N)NC(=O)COc1ccc(S(=O)(=O)c2ccc(OC/C=C(/C)CCC=C(C)C)cc2)cc1	0
COC(=O)[C@H](CCCNC(=N)N)NC(=O)COc1ccc(S(=O)(=O)c2ccc(OCC=C(C)C)cc2)cc1	0
CC(C)=CCC/C(C)=C\COc1ccc(S(=O)(=O)c2ccc(OCCCCNC(=N)N)cc2)cc1	1
COC(=O)[C@H](CCCNC(=N)N)NC(=O)[C@H](CCCNC(=N)N)NC(=O)COc1ccc(S(=O)(=O)c2ccc(OC/C=C(/C)CCC=C(C)C)cc2)cc1	1
COC(=O)[C@H](CCCNC(=N)N)NC(=O)[C@H](CCCNC(=N)N)NC(=O)[C@H](CCCNC(=N)N)NC(=O)COc1ccc(S(=O)(=O)c2ccc(OCC=C(C)C)cc2)cc1	0
CC(C)=CCOc1ccc(S(=O)(=O)c2ccc(OCCCCN(C)C)cc2)cc1	0
CC(C)=CCOc1ccc(S(=O)(=O)c2ccc(OCCCCNC(=N)N)cc2)cc1	1
CC(C)=CCOc1ccc(S(=O)(=O)c2ccc(OCCCCN)cc2)cc1	0
C=CCOc1ccc(S(=O)(=O)c2ccc(OCCCCNC(=N)N)cc2)cc1	1

// next entry
Asked: Could you please tell me whether MIC recorded for "COC(=O)[C@H](CCCNC(=N)N)NC(=O)[C@H](CCCNC(=N)N)NC(=O)[C@H](CCCNC(=N)N)NC(=O)COc1ccc(S(=O)(=O)c2ccc(OC/C=C(/C)CCC=C(C)C)cc2)cc1" is less than 10 µg/mL?
Given back: 1

Reference source for all entries: ChEMBL document CHEMBL5584236
